Hello, the source for this data is patent US20210261677A1, in case you need it.

system-name: T1, mouse PD-L1 on CHO cells that stably expressed mouse PD-L1 (mouse, UniProt Q9EP73 19-290)
T1 construct: whole, on cells; also called CHO cells expressing mouse PD-L1
T1 sequence (Q9EP73 19-290): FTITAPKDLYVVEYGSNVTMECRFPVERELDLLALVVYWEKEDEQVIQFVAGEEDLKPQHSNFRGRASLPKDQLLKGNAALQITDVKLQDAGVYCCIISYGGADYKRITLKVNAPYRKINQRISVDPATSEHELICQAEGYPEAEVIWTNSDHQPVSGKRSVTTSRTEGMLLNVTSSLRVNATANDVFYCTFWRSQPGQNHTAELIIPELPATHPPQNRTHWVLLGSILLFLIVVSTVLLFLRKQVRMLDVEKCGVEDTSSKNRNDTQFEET
method-description: flow cytometry competition: biotin-labelled mouse PD-1-Fc at a subsaturated concentration on CHO cells stably expressing mouse PD-L1, antibody titrated, streptavidin R-PE detection

{"columns": ["binder", "IC50 (read off the curve)"],
 "data": [
  ["PD-L1 antibody YN-039 (antibody, human IgG1, lambda, V domains shown, full-length IgG1,lambda) VH: QVQLVQSGAEVKKPGSSVKVSCKASRGPFSTYAISWVRQAPGQGLEWMGRIIPILGIANYAQKFQGRVTITADKSTSTAYMELSSLRSEDTAVYYCARTMGEYSYGNYDYWGQGTLVTVSS VL: QSALTQPASVSGSPGQSITISCTGTVSDVGGYNEVSWYQQHPGKAPKLMIYENSIRPSGVSHRFSGSKSGNTASLTISGLQAEDEADYYCQSYDSSLSGTVFGGGTKLTVLG", "~4 nM"],
  ["PD-L1 antibody YN-038 (antibody, human IgG1, lambda, V domains shown, full-length IgG1,lambda) VH: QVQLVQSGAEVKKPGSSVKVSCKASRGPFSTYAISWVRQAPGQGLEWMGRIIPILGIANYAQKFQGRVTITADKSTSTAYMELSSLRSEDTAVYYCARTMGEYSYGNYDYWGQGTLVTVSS VL: QSALTQPASVSGSPGQSITISCTGTRSDVGGYNEVSWYQQHPGKAPKLMIYENSIRPSGVSHRFSGSKSGNTASLTISGLQAEDEADYYCQSYDSSLSGTVFGGGTKLTVLG", "~4 nM"],
  ["PD-L1 antibody YN-035 (antibody, human IgG1, lambda, V domains shown, full-length IgG1,lambda) VH: QVQLVQSGAEVKKPGSSVKVSCKASRGPFSTYAISWVRQAPGQGLEWMGRIIPILGIANYAQKFQGRVTITADKSTSTAYMELSSLRSEDTAVYYCARTMEGYGFGNFDYWGQGTLVTVSS VL: QSALTQPASVSGSPGQSITISCTGTVSEVGGYNEVSWYQQHPGKAPKLMIYGNSNRPSGVSNRFSGSKSGNTASLTISGLQAEDEADYYCQSYDSSLSGTVFGGGTKLTVLG", "~3 nM"]
]}
